Measured values drawn from paper PMC9746817 for this set.

- TESTED_ON: Myd88 CRAC domain (Mus musculus, UniProt P22366)
- Sequence (P22366 whole entry, the tested form may be a part): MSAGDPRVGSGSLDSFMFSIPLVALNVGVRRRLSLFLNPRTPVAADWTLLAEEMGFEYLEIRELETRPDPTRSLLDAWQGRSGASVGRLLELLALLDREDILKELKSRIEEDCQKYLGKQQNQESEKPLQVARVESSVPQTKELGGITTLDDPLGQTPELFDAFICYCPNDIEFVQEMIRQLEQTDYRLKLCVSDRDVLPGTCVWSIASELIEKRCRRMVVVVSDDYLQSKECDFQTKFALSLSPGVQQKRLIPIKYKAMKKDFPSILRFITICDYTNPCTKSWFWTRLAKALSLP
MEASURED_ATTRIBUTE: pKd
Schema: pKd number; meaning minus log10 of the concentration expressed in molar units.

Input line: Return pKd (reported value) for this compound: C[C@H](CNc1ccc([N+](=O)[O-])c2nonc12)[C@H]1CC[C@H]2[C@@H]3CC=C4C[C@@H](O)CC[C@]4(C)[C@H]3CC[C@]12C [NBD-cholesterol]
Output line: 4.85
